- TESTED_ON: bradykinin receptors in Guinea Pig Ileum (Cavia porcellus, UniProt O70526)
- Construct: describes the Guinea Pig Ileum assay used to analyze the present compounds; from tissue; host or cells: isolated guinea pig ileum
- Sequence (O70526 1-372): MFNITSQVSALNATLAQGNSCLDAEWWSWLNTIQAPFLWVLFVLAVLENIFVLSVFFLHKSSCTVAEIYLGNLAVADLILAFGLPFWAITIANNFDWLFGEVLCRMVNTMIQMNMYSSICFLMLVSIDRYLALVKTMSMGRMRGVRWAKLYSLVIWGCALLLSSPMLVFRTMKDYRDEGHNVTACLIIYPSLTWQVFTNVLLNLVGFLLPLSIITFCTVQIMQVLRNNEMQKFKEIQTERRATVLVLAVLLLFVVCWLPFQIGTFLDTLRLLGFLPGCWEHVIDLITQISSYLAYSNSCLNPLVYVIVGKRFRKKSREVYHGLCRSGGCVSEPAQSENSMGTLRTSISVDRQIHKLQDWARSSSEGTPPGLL
- ASSAY_PROCEDURE: Guinea Pig Ileum functional assay
- Format: cell-based
- EXPERIMENTAL_PARAMETERS: number in parenthesis is pA2, read-out: Ileum, pA2 (I=inhibitor) (converted)
MEASUREMENT_KIND: Kb (nM)

MOLECULE	MEASUREMENT_KIND	UNITS_OF_MEASURE	VALUE_MEASURED
N=C(N)NCCC[C@@H](N)C(=O)N[C@@H](CCCNC(=N)N)C(=O)N1CCC[C@H]1C(=O)N1C[C@H](O)C[C@H]1C(=O)NCC(=O)N[C@H](C(=O)N[C@@H](CO)C(=O)N[C@H](Cc1c(F)c(F)c(F)c(F)c1F)C(=O)N[C@@H](Cc1cccs1)C(=O)N[C@@H](CCCNC(=N)N)C(=O)O)C1Cc2ccccc2C1 [Compound B10058]	Kb	nM	12.6

---

We begin with a simple list: items and their reported Kb.
- TESTED_ON: bradykinin receptors in Guinea Pig Ileum (Cavia porcellus)
- Construct: describes the Guinea Pig Ileum assay used to analyze the present compounds; from tissue; host or cells: isolated guinea pig ileum
- Sequence (O70526 1-372): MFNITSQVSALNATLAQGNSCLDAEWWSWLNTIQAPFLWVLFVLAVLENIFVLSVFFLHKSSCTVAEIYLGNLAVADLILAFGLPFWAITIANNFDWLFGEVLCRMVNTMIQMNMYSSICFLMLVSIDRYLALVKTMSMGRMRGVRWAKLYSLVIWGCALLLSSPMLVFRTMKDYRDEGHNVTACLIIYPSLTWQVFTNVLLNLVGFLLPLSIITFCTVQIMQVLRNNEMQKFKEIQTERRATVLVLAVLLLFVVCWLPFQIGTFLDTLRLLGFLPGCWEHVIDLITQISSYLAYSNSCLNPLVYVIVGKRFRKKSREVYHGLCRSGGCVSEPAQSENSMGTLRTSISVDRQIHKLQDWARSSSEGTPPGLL
- ASSAY_PROCEDURE: Guinea Pig Ileum functional assay
- Assay type: cell-based
- EXPERIMENTAL_PARAMETERS: Ileum, pA2 (I=inhibitor), number in parenthesis is pA2
MEASUREMENT_KIND: Kb (nM)

MOLECULE	VALUE_MEASURED
N=C(N)NCCC[C@@H](N)C(=O)N[C@@H](CCCNC(=N)N)C(=O)N1CCC[C@H]1C(=O)N1C[C@H](O)C[C@H]1C(=O)NCC(=O)N[C@H](C(=O)N[C@@H](CO)C(=O)N[C@H](Cc1c(F)c(F)c(F)c(F)c1F)C(=O)N[C@H](C(=O)N[C@@H](CCCNC(=N)N)C(=O)O)C1Cc2ccccc2C1)C1Cc2ccccc2C1 [Compound B10056]	10
N=C(N)NCCC[C@H](NC(=O)[C@H](CCCCN)NC(=O)[C@@H](N)CCCCN)C(=O)N1CCC[C@H]1C(=O)N1C[C@H](O)C[C@H]1C(=O)NCC(=O)N[C@H](C(=O)N[C@@H](CO)C(=O)N[C@H](Cc1c(F)c(F)c(F)c(F)c1F)C(=O)N[C@H](C(=O)O)C1CCCCC1)C1Cc2ccccc2C1 [Compound B10146, Lys-Lys-Arg-Pro-Hyp-Gly-Igl-Ser-Df5f-Chg]	1260
N=C(N)NCCC[C@@H](N)C(=O)N[C@@H](CCCNC(=N)N)C(=O)N1CCC[C@H]1C(=O)N1C[C@H](O)C[C@H]1C(=O)NCC(=O)N[C@@H](Cc1cccs1)C(=O)N[C@@H](CO)C(=O)N[C@H](Cc1c(F)c(F)c(F)c(F)c1F)C(=O)N(CC(=O)N[C@@H](CCCNC(=N)N)C(=O)O)C1CCCCC1 [Compound B10208]	2

Sourced from patent US5935932A
